# Test system: ATCC19606 strain (Acinetobacter baumannii)
# ASSAY DETAILS: Checkerboard antibacterial synergistic activity test with polymyxin E (FIC)
# Format: cell-based
# Parameters: key: FIC≤0.5 synergy; 0.5–1 additive; 1–2 indifferent; ≥2 antagonism
# EXPERIMENTAL CONDITIONS: combined with polymyxin E
// values below are reported Synergistic activity (FIC value) ATCC19606

# example entries with known answers
Please report Synergistic activity (FIC value) ATCC19606 for the following molecule: NC(N)=Nc1nc(-c2ccc3ccccc3c2)cs1 1.25

Please report Synergistic activity (FIC value) ATCC19606 for the following molecule: NC(N)=Nc1nc(-c2ccc(Sc3ccccc3)cc2)cs1 1.25

Please report Synergistic activity (FIC value) ATCC19606 for the following molecule: Cc1[nH]c(N=C2NCCCN2)nc1-c1cc(C(C)(C)C)cc(C(C)(C)C)c1 0.03

Please report Synergistic activity (FIC value) ATCC19606 for the following molecule: CC(C)c1cc(-c2c[se]c(N=C(N)N)n2)cc(C(C)C)c1 0.15

Here's the next entry for you.
Please report Synergistic activity (FIC value) ATCC19606 for the following molecule: CSc1cc2c(Cl)cccn2c1-c1nc(N=C2NCCCN2)sc1Cl 0.13
